Origin of the recorded values: patent US10954221B2

target-or-system: UniProt P43220
Sequence (P43220 24-463): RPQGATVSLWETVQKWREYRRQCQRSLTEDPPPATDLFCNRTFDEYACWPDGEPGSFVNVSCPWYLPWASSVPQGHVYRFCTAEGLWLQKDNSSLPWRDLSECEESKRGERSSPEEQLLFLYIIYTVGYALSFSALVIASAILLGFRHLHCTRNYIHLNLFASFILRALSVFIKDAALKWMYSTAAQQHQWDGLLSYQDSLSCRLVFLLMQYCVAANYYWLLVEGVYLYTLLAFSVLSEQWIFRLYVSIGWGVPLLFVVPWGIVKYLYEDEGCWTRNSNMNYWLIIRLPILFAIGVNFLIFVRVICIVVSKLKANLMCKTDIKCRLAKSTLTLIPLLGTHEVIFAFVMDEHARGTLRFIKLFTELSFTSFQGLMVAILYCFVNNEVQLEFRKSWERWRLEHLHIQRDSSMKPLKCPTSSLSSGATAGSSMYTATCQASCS
Sequence (P32121 whole entry partner): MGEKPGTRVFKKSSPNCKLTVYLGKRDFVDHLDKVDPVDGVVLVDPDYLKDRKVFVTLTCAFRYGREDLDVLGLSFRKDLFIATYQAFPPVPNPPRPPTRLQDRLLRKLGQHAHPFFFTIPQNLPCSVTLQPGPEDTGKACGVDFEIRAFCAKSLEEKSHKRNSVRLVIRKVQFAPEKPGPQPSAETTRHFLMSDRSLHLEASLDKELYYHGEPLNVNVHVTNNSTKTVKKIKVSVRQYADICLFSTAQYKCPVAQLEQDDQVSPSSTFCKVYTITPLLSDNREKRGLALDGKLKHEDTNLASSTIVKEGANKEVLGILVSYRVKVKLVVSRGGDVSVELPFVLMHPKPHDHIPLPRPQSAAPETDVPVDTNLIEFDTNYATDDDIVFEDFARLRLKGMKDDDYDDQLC
Parameters: dose or concentration left out as unconfirmed
condition-details: CHO-K1, […], read-out: β-arrestin recruitment Bmax (%)
Rule: Emax of 30% or more gives true (1); anything lower gives false (0).

molecule: N#Cc1ccc(COc2nc(-c3ccc(Cc4nc5ccc(C(=O)O)nc5n4C[C@@H]4CCO4)c(F)c3)ncc2F)c(F)c1
label-value: false (0)
--
molecule: O=C(O)c1ccc2nc(Cc3cc(F)c(-c4cccc(OCc5ncc(Cl)cc5F)n4)cc3F)n(C[C@@H]3CCO3)c2n1
label-value: true (1)

Task item: // inclusive: Emax at least 30%? input: O=C(O)c1ccc2nc(Cc3ccc(-c4nccc(OCc5ccc(Cl)cc5F)n4)cc3F)n(C[C@@H]3CCO3)c2c1F
Reply: true (1)

Task item: // inclusive: Emax at least 30%? input: O=C(O)c1ccc2nc(Cc3ccc(-c4ccc(F)c(OCc5ccc(Cl)cc5F)n4)c(F)c3)n(C[C@@H]3CCO3)c2n1
Reply: true (1)

Task item: // inclusive: Emax at least 30%? input: O=C(O)c1ccc2nc(Cc3ccc(-c4ccc(F)c(OCc5ccc(Cl)cc5F)c4)c(F)c3)n(C[C@@H]3CCO3)c2c1
Reply: false (0)

Task item: // inclusive: Emax at least 30%? input: O=C(O)c1ccc2nc(Cc3ccc(-c4ccc(F)c(OCc5ccc(Cl)cc5F)c4)cc3F)n(C[C@@H]3CCO3)c2c1
Reply: true (1)

Task item: // inclusive: Emax at least 30%? input: O=C(O)c1ccc2nc(Cc3ccc(-c4cccc(OCc5ccc(Cl)cc5F)n4)c(F)c3)n(C[C@@H]3CCO3)c2n1
Reply: false (0)
